experiment: COS7 lysate on small-molecule microarray, probe aHis, 635 nm (AID 1123); conditions: COS7 cell lysate, fluorescence, higher = more signal;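 note: z-score combines 667nm fluorescence intensity with signal-to-noise per printed compound spot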
# key: entry, value: composite z-score
Write no unit; give the number alone.

[[record]]
molecule = "CN(C)CCCCCCNC(=O)[C@@H]1C[C@@H]2C(=O)N3CCC[C@H]3C(=O)N2[C@@H]1c1cccc(OCCO)c1"
measured_parameter = "composite z-score"
value_reported = 2.73

[[record]]
molecule = "COC(=O)C1(CC(C)C)C=C2C(=C(c3ccccc3)C(=O)C2C)CN1 (stereo not given)"
measured_parameter = "composite z-score"
value_reported = 2.15

[[record]]
molecule = "CC(C)[Si]1(C(C)C)OCc2cc(-c3ccc(-c4ccc(Cl)c(Cl)c4)o3)nc(-c3ccccc3)c21"
measured_parameter = "composite z-score"
value_reported = -0.77

[[record]]
molecule = "COc1cc(OC)c(C(O)C2C=CC3C(=O)N(Cc4ccccc4)C(=O)C3N2n2cnnc2)cc1Br (stereo not given)"
measured_parameter = "composite z-score"
value_reported = 1.64

[[record]]
molecule = "Cn1cccc1C(O)C1C=CC2C(=O)N(c3ccccc3)C(=O)C2N1Nc1ccccc1 (stereo not given)"
measured_parameter = "composite z-score"
value_reported = 2.37


Asked: Look up and report measured composite z-score for this entry: CC(C)[Si](C#C[Si](C(C)C)(C(C)C)C(C)C)(O[C@H](c1ccccc1)c1cn(Cc2ccccc2)nn1)C(C)C
Given back: -0.366

Asked: Look up and report measured composite z-score for this entry: COc1cccc(C)c1NC(=O)O[C@H]1[C@H](OC(=O)Nc2ccc3c(c2)OCO3)[C@@H](OC(=O)Nc2ccc3c(c2)OCO3)[C@@H](OC)O[C@@H]1CO
Given back: 2.53

Asked: Look up and report measured composite z-score for this entry: CCOC(=O)C[C@H]1[C@H](OC(=O)Cc2ccc3c(c2)OCO3)[C@@H](NC(=O)c2ccc3ccccc3n2)c2cc(OCCCO)ccc2N1C(=O)c1ccccc1
Given back: 0.109

###

target: Fibroblast growth factor 10 (Homo sapiens); assay: compounds binding fibroblast growth factor 10 – biochemical, small-molecule microarray, 635 nm fluorescence, primary screen (AID 1102); conditions: FGF10 binding, fluorescence 635 nm, higher = more signal
measured_parameter: composite z-score
Write no unit; give the number alone.

Worked examples follow.
[[record]]
molecule = "C=CCOC(=O)[C@@]1(Cc2ccccc2)C[C@H]2CO[C@H](c3ccc(OC)cc3)N2C1=O"
value_reported = 0.25

[[record]]
molecule = "CCCCCCCCCC(O)C1C=CC2C(=O)N(c3ccccc3)C(=O)C2N1Nc1cc(OC)c(OC)c(OC)c1 (stereo not drawn)"
value_reported = -0.4

[[record]]
molecule = "O=C(NCCN1CCOCC1)[C@@H]1c2ccccc2C(=O)N(C2Cc3ccccc3C2)[C@H]1c1ccc(CO)cc1"
value_reported = -0.223

[[record]]
molecule = "OCCCC1=CC(c2ccc(CN3CCCC3)cc2)N(Cc2cc3c(cc2Br)OCO3)CC1 (stereo not drawn)"
value_reported = 0.477

[[record]]
molecule = "CN(C)C(=O)[C@@]1(Cc2ccccc2CN=[N+]=[N-])N=C(c2ccc(OCCCO)cc2)O[C@H]1c1ccccc1N=[N+]=[N-]"
value_reported = 0.884

[[record]]
molecule = "CC(C)(C)OC(=O)CC[C@@]1(C(=O)NCC(O)CO)N=C(c2ccc(OCCCO)cc2)O[C@@H]1c1ccccc1CN=[N+]=[N-] (stereo partly drawn)"
value_reported = 0.364


Asked: Look up and report measured composite z-score for this entry: CC1=C2[C@@H](CCc3ccccc3)OB(O)C[C@@H]2[C@@H]2C(=O)N(Cc3ccccc3)C(=O)[C@@H]2C1
Given back: 0.631

Asked: Look up and report measured composite z-score for this entry: C=CCN1Cc2ccccc2[C@@H]2OC(c3ccc(OCCCO)cc3)=N[C@]2(CC=C)C1=O
Given back: 0.862

###

experiment: forskolin-driven CRE-LacZ activity in PC12 – cell-based, CRE-LacZ reporter, forskolin-stimulated, primary screen (AID 1146); conditions: luminescence, 4.5 h, higher = more signal, called active from +8 up or from −8 down;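 note: PC12 cells with 6xCRE LacZ reporter stimulated by forskolin 10 µM; beta-galactosidase reporter signal reflecting CREB driven transcription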
# key: entry, value: z-score
Write no unit; give the number alone.

[[record]]
compound = "CCOC(=O)C1=C[C@@H](C(C)C)N(S(=O)(=O)c2ccc(C)cc2)[C@H]1c1ccc(C(F)(F)F)cc1"
measured_parameter = "z-score"
value_reported = -1.13


Asked: Look up and report measured z-score for this entry: CCCCC=C[C@@H](NC(=O)OCc1ccccc1Cl)c1ccccc1
Given back: 1.02

Asked: Look up and report measured z-score for this entry: COC(=O)[C@@]1(Cc2ccc(OC)cc2)[C@H]2c3cc(C(=O)N4CCCC4)n(CCO)c3C[C@H]2CN1C(=O)c1ccccc1
Given back: 1.41

Asked: Look up and report measured z-score for this entry: COc1ccc(CCNC(=O)[C@@]2(c3ccc([N+](=O)[O-])cc3)CC(=O)N(C3CCCCC3)[C@@H]2c2ccc(CO)cc2)cc1
Given back: -1.11

Asked: Look up and report measured z-score for this entry: Cc1ccc(F)cc1S(=O)(=O)N[C@@H]1CCN(Cc2ccc(Br)cc2)C1
Given back: -1.64

Asked: Look up and report measured z-score for this entry: COc1ccc(CCNC(=O)[C@@H]2c3ccccc3C(=O)N(C3CCCCC3)[C@H]2c2ccc(CO)cc2)cc1
Given back: -0.582

Asked: Look up and report measured z-score for this entry: CC(C)N1C(=O)c2ccccc2[C@@H](C(=O)NCCN2CCOCC2)[C@@H]1c1ccc(CO)cc1
Given back: -0.107

Asked: Look up and report measured z-score for this entry: O=C1OCCC/C=C\[C@H]2OC34C=CCN(c5ccc6ccccc6c5)C(=O)[C@H]3N(CCO)C(=O)[C@@H]4C12 (stereo partly drawn)
Given back: -0.183

###

experiment: JC-1 mitochondrial potential readout, lung cancer cells – cell-based, A549, JC-1 fluorescence, basal, 24 h, 100 nL, profiling panel (AID 1138); conditions: higher = more signal;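 note: A549 lung adenocarcinoma cells under basal conditions with no added stimulus; test concentration not given here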
z-score below 0.6 gives label 0; z-score at or above it gives label 1.

Reference set, count: 5
[[record]]
compound = "CN(C)C(=O)[C@@]1(Cc2ccccc2)N=C(c2ccc(OCCCO)cc2)O[C@H]1c1ccccc1"
qualitative_label = "label 0"

[[record]]
compound = "COC(=O)C(CC#Cc1ccc2c(c1)[C@]1(C(=O)N2)[C@H](c2ccc(O)cc2)N2[C@H](c3ccccc3)[C@H](c3ccccc3)OC(=O)[C@H]2[C@@H]1C(=O)NC[C@H](O)c1ccccc1)C(=O)OC"
qualitative_label = "label 0"

[[record]]
compound = "COC(=O)[C@@]1(Cc2ccc(F)cc2)[C@H]2c3cc(C(=O)N(C)C)n(Cc4ccc(OC(F)(F)F)cc4)c3C[C@H]2CN1C(=O)c1ccccc1"
qualitative_label = "label 0"

[[record]]
compound = "COc1cc(NN2C(C(O)c3ccc(N(C)C)cc3)C=CC3C(=O)N(c4ccccc4)C(=O)C32)cc(OC)c1OC (stereo not drawn)"
qualitative_label = "label 0"

[[record]]
compound = "CCCCC(CC)C(O)C1C=CC2C(=O)N(c3ccccc3)C(=O)C2N1Nc1ccc(C#N)cc1 (stereo not drawn)"
qualitative_label = "label 0"


Asked: Would you say COc1cc2c(cc1O)C(C1CC1)N(C)CC2 (stereo not drawn) shows z-score at minimum 0.6?
Given back: label 1

Asked: Would you say COCCOC(=O)N1C(=O)[C@@]2(c3cc(C#CCCO)ccc31)[C@H](C(=O)Nc1nc3ccccc3s1)[C@H]1C(=O)O[C@H](c3ccccc3)[C@H](c3ccccc3)N1[C@@H]2c1ccc(O)cc1 shows z-score at minimum 0.6?
Given back: label 0

Asked: Would you say C=CC[C@]1(C(=O)N2CCCCC2)N=C(c2ccc(OCCCO)cc2)O[C@H]1c1ccccc1CN=[N+]=[N-] shows z-score at minimum 0.6?
Given back: label 1

###

# key: entry, value: z-score
test: changes in parasitized red cell lysis, either direction – P. falciparum Indochina, OD700, 3 h, PSAC antagonist project, primary screen (AID 1156); conditions: P. falciparum-infected erythrocytes, osmotic lysis, higher = more signal, called active from +8 up or from −8 down
Write no unit; give the number alone.

Worked examples follow.
[[record]]
molecule = "CC(C)C(CO)N1C(=O)[C@@H]2C3C(=O)OCCC/C=C\\[C@H]3OC23C=CCN(c2ccc4ccccc4c2)C(=O)[C@@H]13 (some centres undefined)"
measured_parameter = "z-score"
value_reported = 0.204

[[record]]
molecule = "COc1cc(NN2C(C(O)c3ccc(N(C)C)cc3)C=CC3C(=O)N(c4ccccc4)C(=O)C32)cc(OC)c1OC (centres undefined)"
measured_parameter = "z-score"
value_reported = 0.742

[[record]]
molecule = "CN(C)c1ccc(C(O)C2C=CC3C(=O)NC(=O)C3N2Nc2ccccn2)cc1 (centres undefined)"
measured_parameter = "z-score"
value_reported = -0.693


Moving on to the next molecule.
Asked: Look up and report measured z-score for this entry: COc1cc2c(cc1O)C(c1cccs1)N(Cc1cc3c(cc1Br)OCO3)CC2 (centres undefined)
Given back: -1.06
